TEST PROTOCOL: mouse fibroblast viability loss – cell-based, cherry-pick samples, set 2, cytotoxicity control for T. cruzi growth inhibitor project, dose response (AID 651817)
TEST PARAMETERS: NIH/3T3 viability, ATP luminescence (CellTiter-Glo), 90 h; at 19.5 µM (top of the series)
OBSERVED PROPERTY: activity change, negative = cytotoxicity (%)

>>> test_result("C[C@@H]1CN([C@@H](C)CO)C(=O)c2cccc(NC(=O)c3ccncc3)c2O[C@@H]1CN(C)Cc1ccc(Cl)c(Cl)c1")
33
>>> test_result("C[C@H]1CN([C@@H](C)CO)C(=O)c2cccc(NC(=O)c3nc4ccccc4s3)c2O[C@@H]1CN(C)S(=O)(=O)c1ccc(Cl)cc1")
-9.43
>>> test_result("C[C@@H]1CN([C@H](C)CO)C(=O)c2cccc(NC(=O)c3ccncc3)c2O[C@H]1CN(C)CC1CCCCC1")
-12.3
>>> test_result("COc1ccc(CN(C)C[C@@H]2Oc3c(NC(=O)Nc4ccc(C(F)(F)F)cc4)cccc3C(=O)N([C@H](C)CO)C[C@@H]2C)cc1")
-21.3
>>> test_result("C[C@@H]1CN([C@H](C)CO)C(=O)c2cccc(NC(=O)c3ccncc3)c2O[C@@H]1CN(C)Cc1ccc(C(F)(F)F)cc1")
-24.5
>>> test_result("Cc1ccc(S(=O)(=O)N(C)C[C@@H]2Oc3ccc(NS(=O)(=O)c4ccccc4)cc3CC(=O)N([C@H](C)CO)C[C@H]2C)cc1")
-18.9
>>> test_result("C[C@@H]1CN([C@@H](C)CO)C(=O)c2cccc(NC(=O)NC3CCCCC3)c2O[C@@H]1CN(C)S(=O)(=O)c1ccc(F)cc1")
21.4
>>> test_result("C[C@H]1CN([C@@H](C)CO)C(=O)c2cccc(NC(=O)c3ccncc3)c2O[C@H]1CN(C)Cc1ccc(-c2ccccc2)cc1")
18.2
>>> test_result("Cc1ccc(S(=O)(=O)N(C)C[C@@H]2Oc3ccc(NS(=O)(=O)c4ccc(Cl)cc4)cc3CC(=O)N([C@@H](C)CO)C[C@H]2C)cc1")
-61.2
>>> test_result("C[C@@H]1CN([C@@H](C)CO)C(=O)c2cccc(NC(=O)c3nc4ccccc4s3)c2O[C@@H]1CN(C)S(=O)(=O)c1ccccc1")
-7.14
>>> test_result("Cc1ccc(S(=O)(=O)Nc2ccc3c(c2)CC(=O)N([C@H](C)CO)C[C@@H](C)[C@@H](CN(C)Cc2ccccc2)O3)cc1")
-12.9
>>> test_result("Cc1ccc(S(=O)(=O)Nc2ccc3c(c2)CC(=O)N([C@@H](C)CO)C[C@@H](C)[C@@H](CN(C)Cc2ccccc2)O3)cc1")
-13.8
>>> test_result("COc1ccc(CN(C)C[C@H]2Oc3c(NC(=O)Nc4ccc(C(F)(F)F)cc4)cccc3C(=O)N([C@@H](C)CO)C[C@H]2C)cc1")
-11.1
>>> test_result("COc1ccc(CN(C)C[C@@H]2Oc3c(NC(=O)Nc4ccc(C(F)(F)F)cc4)cccc3C(=O)N([C@@H](C)CO)C[C@@H]2C)cc1")
-25.6

====

Reported activity change, negative = cytotoxicity is given for each of the following compounds.
TEST PROTOCOL: mouse fibroblast viability loss – cell-based, cherry-pick samples, set 2, cytotoxicity control for T. cruzi growth inhibitor project, dose response (AID 651817)
TEST PARAMETERS: NIH/3T3 viability, ATP luminescence (CellTiter-Glo), 90 h; at 19.5 µM (top of the series)
OBSERVED PROPERTY: activity change, negative = cytotoxicity (%)

>>> test_result("Cc1ccc(S(=O)(=O)Nc2ccc3c(c2)CC(=O)N([C@@H](C)CO)C[C@H](C)[C@@H](CN(C)Cc2ccccc2)O3)cc1")
30.9
>>> test_result("C[C@H](CO)N1C[C@H](C)[C@@H](CN(C)Cc2ccc(C(F)(F)F)cc2)Oc2c(NC(=O)c3ccncc3)cccc2C1=O")
-10.8
>>> test_result("Cc1noc(C)c1NC(=O)Nc1cccc2c1O[C@H](CN(C)S(C)(=O)=O)[C@H](C)CN([C@@H](C)CO)C2=O")
1.29
>>> test_result("Cc1ccc(S(=O)(=O)Nc2ccc3c(c2)CC(=O)N([C@H](C)CO)C[C@@H](C)[C@H](CN(C)Cc2ccc4c(c2)OCO4)O3)cc1")
11
>>> test_result("C[C@@H]1CN([C@H](C)CO)C(=O)c2cccc(NC(=O)c3nc4ccccc4s3)c2O[C@H]1CN(C)Cc1ccc2c(c1)OCO2")
-10.9
>>> test_result("COc1ccc(CN(C)C[C@@H]2Oc3c(NC(=O)c4ccncc4)cccc3C(=O)N([C@@H](C)CO)C[C@H]2C)cc1")
-18.8
>>> test_result("C[C@@H]1CN([C@H](C)CO)C(=O)c2cccc(NC(=O)NC3CCCCC3)c2O[C@H]1CN(C)S(=O)(=O)c1ccc(F)cc1")
1.29

====

TEST PROTOCOL: mouse fibroblast viability loss – cell-based, cherry-pick samples, set 2, cytotoxicity control for T. cruzi growth inhibitor project, dose response (AID 651817)
TEST PARAMETERS: NIH/3T3 viability, ATP luminescence (CellTiter-Glo), 90 h; at 19.5 µM (top of the series)
The source made the active and inactive calls.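 Rule for the calls: active = compound whose fitted luminescence drop, meaning cytotoxicity, reaches half effect at most twice its top valid tested dose; inconclusive = flat curve with a moderate drop, or an unreliable fit; inactive = rise instead of drop, flat response, or weaker potency.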
Reported activity change, negative = cytotoxicity is given for each of the following molecules.
OBSERVED PROPERTY: activity change, negative = cytotoxicity

>>> test_result("COc1ccc(CN(C)C[C@H]2Oc3c(NC(=O)c4ccncc4)cccc3C(=O)N([C@H](C)CO)C[C@@H]2C)cc1")
"23.4% (inactive)"
>>> test_result("C[C@H](CO)N1C[C@H](C)[C@H](CN(C)Cc2ccc(Oc3ccccc3)cc2)Oc2c(NC(=O)c3ccncc3)cccc2C1=O")
"-12.3% (inactive)"
>>> test_result("C[C@@H]1CN([C@@H](C)CO)C(=O)Cc2cc(NS(=O)(=O)c3ccccc3)ccc2O[C@H]1CN(C)S(=O)(=O)c1ccc(Cl)cc1")
"0.768% (inactive)"
>>> test_result("Cc1ccc(S(=O)(=O)N(C)C[C@H]2Oc3c(NC(=O)c4nc5ccccc5s4)cccc3C(=O)N([C@H](C)CO)C[C@H]2C)cc1")
"14.1% (inactive)"
>>> test_result("Cc1ccc(S(=O)(=O)N(C)C[C@H]2Oc3ccc(NS(=O)(=O)c4ccccc4)cc3CC(=O)N([C@H](C)CO)C[C@H]2C)cc1")
"-0.01% (inactive)"
>>> test_result("C[C@H](CO)N1C[C@H](C)[C@H](CN(C)CC2CCCCC2)Oc2c(NC(=O)c3ccncc3)cccc2C1=O")
"2.09% (inactive)"
>>> test_result("C[C@@H]1CN([C@H](C)CO)C(=O)Cc2cc(NS(=O)(=O)c3ccccc3)ccc2O[C@H]1CN(C)S(=O)(=O)c1ccc(Cl)cc1")
"-1.38% (inactive)"

====

Reported activity change, negative = cytotoxicity is given for each of the following compounds.
TEST PROTOCOL: mouse fibroblast viability loss – cell-based, cherry-pick samples, set 2, cytotoxicity control for T. cruzi growth inhibitor project, dose response (AID 651817)
TEST PARAMETERS: NIH/3T3 viability, ATP luminescence (CellTiter-Glo), 90 h; at 19.5 µM (top of the series)
OBSERVED PROPERTY: activity change, negative = cytotoxicity (%)

>>> test_result("C[C@@H]1CN([C@@H](C)CO)C(=O)c2cccc(NC(=O)c3ccncc3)c2O[C@H]1CN(C)Cc1ccc(C(F)(F)F)cc1")
0.884
>>> test_result("Cc1noc(C)c1NC(=O)Nc1cccc2c1O[C@H](CN(C)S(C)(=O)=O)[C@H](C)CN([C@H](C)CO)C2=O")
-14.2
>>> test_result("Cc1ccc(S(=O)(=O)N(C)C[C@@H]2Oc3c(NC(=O)c4nc5ccccc5s4)cccc3C(=O)N([C@@H](C)CO)C[C@H]2C)cc1")
-13.6
>>> test_result("C[C@@H]1CN([C@@H](C)CO)C(=O)c2cccc(NC(=O)c3nc4ccccc4s3)c2O[C@H]1CN(C)Cc1ccc2c(c1)OCO2")
-20.2
>>> test_result("C[C@@H]1CN([C@H](C)CO)C(=O)c2cccc(NC(=O)c3ccncc3)c2O[C@H]1CN(C)CC1CC1")
-26.2
>>> test_result("C[C@H](CO)N1C[C@H](C)[C@H](CN(C)Cc2ccc3c(c2)OCO3)Oc2c(NC(=O)c3ccncc3)cccc2C1=O")
-7.03
>>> test_result("Cc1noc(C)c1NC(=O)Nc1cccc2c1O[C@H](CN(C)S(C)(=O)=O)[C@@H](C)CN([C@@H](C)CO)C2=O")
-18.2

====

TEST PROTOCOL: mouse fibroblast viability loss – cell-based, cherry-pick samples, set 2, cytotoxicity control for T. cruzi growth inhibitor project, dose response (AID 651817)
TEST PARAMETERS: NIH/3T3 viability, ATP luminescence (CellTiter-Glo), 90 h; at 19.5 µM (top of the series)
# strict inequality: activity change, negative = cytotoxicity < -10% yields t, everything else yields f

>>> discrete_label("C[C@H]1CN([C@@H](C)CO)C(=O)c2cccc(NC(=O)c3ccncc3)c2O[C@@H]1CN(C)Cc1ccc(Oc2ccccc2)cc1")
"t"
>>> discrete_label("Cc1ccc(S(=O)(=O)N(C)C[C@H]2Oc3c(NC(=O)c4nc5ccccc5s4)cccc3C(=O)N([C@H](C)CO)C[C@@H]2C)cc1")
"f"
>>> discrete_label("COc1ccc(CN(C)C[C@H]2Oc3c(NC(=O)Nc4ccc(C(F)(F)F)cc4)cccc3C(=O)N([C@H](C)CO)C[C@@H]2C)cc1")
"f"
>>> discrete_label("C[C@@H]1CN([C@H](C)CO)C(=O)c2cccc(NC(=O)c3ccncc3)c2O[C@H]1CN(C)Cc1ccccc1")
"f"
>>> discrete_label("C[C@@H]1CN([C@H](C)CO)C(=O)c2cccc(NC(=O)NC3CCCCC3)c2O[C@@H]1CN(C)S(=O)(=O)c1ccc(F)cc1")
"f"
>>> discrete_label("C[C@H](CO)N1C[C@H](C)[C@@H](CN(C)CC2CCCCC2)Oc2c(NC(=O)c3ccncc3)cccc2C1=O")
"t"
>>> discrete_label("C[C@H]1CN([C@@H](C)CO)C(=O)c2cccc(NC(=O)c3nc4ccccc4s3)c2O[C@H]1CN(C)S(=O)(=O)c1ccc(Cl)cc1")
"f"
>>> discrete_label("C[C@H]1CN([C@@H](C)CO)C(=O)Cc2cc(NS(=O)(=O)c3ccc(Cl)cc3)ccc2O[C@H]1CN(C)S(=O)(=O)c1ccc(Cl)cc1")
"t"
>>> discrete_label("C[C@@H]1CN([C@H](C)CO)C(=O)c2cccc(NC(=O)c3ccncc3)c2O[C@@H]1CN(C)Cc1ccc(-c2ccccc2)cc1")
"f"
>>> discrete_label("C[C@@H]1CN([C@H](C)CO)C(=O)c2cccc(NC(=O)c3ccncc3)c2O[C@@H]1CN(C)Cc1ccccc1")
"f"
>>> discrete_label("C[C@H](CO)N1C[C@H](C)[C@@H](CN(C)S(=O)(=O)c2ccc(F)cc2)Oc2c(NC(=O)NC3CCCCC3)cccc2C1=O")
"f"
>>> discrete_label("Cc1ccc(S(=O)(=O)N(C)C[C@@H]2Oc3ccc(NS(=O)(=O)c4ccccc4)cc3CC(=O)N([C@H](C)CO)C[C@@H]2C)cc1")
"f"
>>> discrete_label("Cc1ccc(S(=O)(=O)N(C)C[C@H]2Oc3ccc(NS(=O)(=O)c4ccccc4)cc3CC(=O)N([C@H](C)CO)C[C@@H]2C)cc1")
"t"
>>> discrete_label("C[C@H](CO)N1C[C@H](C)[C@H](CN(C)Cc2ccc3c(c2)OCO3)Oc2c(NC(=O)c3nc4ccccc4s3)cccc2C1=O")
"f"
>>> discrete_label("Cc1noc(C)c1NC(=O)Nc1cccc2c1O[C@@H](CN(C)S(C)(=O)=O)[C@H](C)CN([C@@H](C)CO)C2=O")
"t"
>>> discrete_label("C[C@H]1CN([C@@H](C)CO)C(=O)c2cccc(NC(=O)c3ccncc3)c2O[C@@H]1CN(C)Cc1ccc(Cl)c(Cl)c1")
"t"
>>> discrete_label("Cc1ccc(S(=O)(=O)Nc2ccc3c(c2)CC(=O)N([C@H](C)CO)C[C@H](C)[C@@H](CN(C)Cc2ccccc2)O3)cc1")
"f"
>>> discrete_label("Cc1ccc(S(=O)(=O)N(C)C[C@H]2Oc3c(NC(=O)c4nc5ccccc5s4)cccc3C(=O)N([C@@H](C)CO)C[C@@H]2C)cc1")
"f"
>>> discrete_label("C[C@H]1CN([C@@H](C)CO)C(=O)c2cccc(NC(=O)c3ccncc3)c2O[C@H]1CN(C)Cc1ccc(Cl)c(Cl)c1")
"t"
>>> discrete_label("C[C@H](CO)N1C[C@H](C)[C@H](CN(C)S(=O)(=O)c2ccc(Cl)cc2)Oc2ccc(NS(=O)(=O)c3ccc(Cl)cc3)cc2CC1=O")
"f"
>>> discrete_label("C[C@@H]1CN([C@@H](C)CO)C(=O)c2cccc(NC(=O)c3nc4ccccc4s3)c2O[C@H]1CN(C)S(=O)(=O)c1ccc(Cl)cc1")
"f"
>>> discrete_label("Cc1ccc(S(=O)(=O)Nc2ccc3c(c2)CC(=O)N([C@H](C)CO)C[C@H](C)[C@H](CN(C)Cc2ccc(Cl)c(Cl)c2)O3)cc1")
"f"
>>> discrete_label("C[C@H](CO)N1C[C@H](C)[C@@H](CN(C)Cc2ccc(Cl)c(Cl)c2)Oc2c(NC(=O)c3ccncc3)cccc2C1=O")
"t"
>>> discrete_label("C[C@H](CO)N1C[C@H](C)[C@@H](CN(C)S(=O)(=O)c2ccc(Cl)cc2)Oc2ccc(NS(=O)(=O)c3ccc(Cl)cc3)cc2CC1=O")
"t"
>>> discrete_label("C[C@H](CO)N1C[C@H](C)[C@H](CN(C)Cc2ccccc2)Oc2c(NC(=O)c3ccncc3)cccc2C1=O")
"f"
>>> discrete_label("C[C@H](CO)N1C[C@H](C)[C@H](CN(C)S(=O)(=O)c2ccc(F)cc2)Oc2c(NC(=O)NC3CCCCC3)cccc2C1=O")
"t"
>>> discrete_label("C[C@@H]1CN([C@H](C)CO)C(=O)c2cccc(NC(=O)c3nc4ccccc4s3)c2O[C@@H]1CN(C)S(=O)(=O)c1ccc(Cl)cc1")
"f"
>>> discrete_label("Cc1ccc(S(=O)(=O)N(C)C[C@@H]2Oc3ccc(NS(=O)(=O)c4ccccc4)cc3CC(=O)N([C@@H](C)CO)C[C@H]2C)cc1")
"f"
